These data points were gathered from patent US20150118233A1.

biological target: hRSV FTM- NN protein (membrane anchorless form of the Long fusion protein, 70 kDa) (hRSV strain Long); assay: SPR (Biacore T100), FTM- NN amine-coupled, 1:1 Langmuir fit
For each record, write down the corresponding log10 koff.
In plain terms, each number is the log10 of measured koff in s⁻¹.

binder	log10 koff
Nanobody 1E4 (VHH) VHH: EVQLVESGGGLVQAGGSLRLSCEASGRTFSSYGMGWFRQAPGKEREFVAAVSRLSGPRTVYADSVKGRFTISRDNAENTVYLQMNSLKPEDTAVYTCAAELTNRNPGAYYYTWAYDYWGQGTQVTVSS	-2.89

For every item below, please supply its log10 koff.
1. Nanobody 7B2 (VHH) VHH: EVQLVESGGGLVQAGDSLRLSCAASGRTFSSYAMGWFRQAPGKEREFVAAISWSDGSTYYADSVKGRFTISRDNAKNTVYLQMNSLKPEDTAVYYCAADLTSTNPGSYIYIWAYDYWGQGTQVTVSS
2. Nanobody 191D3 (VHH) VHH: EVQLVESGGGLVQAGGSLRLSCEASGRTYSRYGMGWFRQAPGKEREFVAAVSRLSGPRTVYADSVKGRFTISRDNAENTVYLQMNSLKPEDTAVYTCAAELTNRNSGAYYYAWAYDYWGQGTQVTVSS
3. Nanobody 15H8 (VHH) VHH: EVQLVESGGGLVQAGGSLRLSCAASGRSFSNYVLGWFRQAPGKEREFVAAISFRGDSAIGAPSVEGRFTISRDNAKNTGYLQMNSLVPDDTAVYYCGAGTPLNPGAYIYDWSYDYWGRGTQVTVSS

Ans.
-3.19
-2.55
-1.68

For every item below, please supply its log10 koff.
1. Nanobody 15B3 (VHH) VHH: EVQLVESGGGLVQPGGSLRLSCAASGLTLDYYALGWFRQAPGKEREGVSCISSSDHSTTYTDSVKGRFTISWDNAKNTLYLQMNSLKPGDTAVYYCAADPALGCYSGSYYPRYDYWGQGTQVTVSS
2. Nanobody NC23 (VHH) VHH: EVQLVESGGGLVQPGGSLRLSCAASGRTFSSIAMGWFRQAPGKEREFVAAISWSRGRTFYADSVKGRFIISRDDAANTAYLQMNSLKPEDTAVYYCAVDTASWNSGSFIYDWAYDHWGQGTQVTVSS

Ans.
1. -3.57
2. -3.13
